Listed next: entries and their corresponding Viability.
test system: DC3F/AD; test: Percent of cell viability remaining after incubating with a 10 uM concentration; format: functional, Cricetulus griseus
metric: Viability (%)

compound: C=CCN(CC=C)c1nc(N(CC=C)CC=C)nc(N2CCC(NCC(c3ccccc3)c3ccccc3)CC2)n1
readout-unit: %
val: 65
//
compound: C=CCNc1nc(NCC=C)nc(N2CCN(C(c3ccc(F)cc3)c3ccc(F)cc3)CC2)n1.CS(=O)(=O)O
readout-unit: %
val: 63
//
compound: C=CCNc1nc(NCC=C)nc(N2CCC(N(CC)C(c3ccc(F)cc3)c3ccc(F)cc3)CC2)n1
readout-unit: %
val: 53
//
compound: C=CCNc1nc(NCC=C)nc(N2CCC(NC3CC4c5ccccc5C3c3ccccc34)CC2)n1 (centres undefined)
readout-unit: %
val: 102
